This collection of values is drawn from PubChem BioAssay (NCI).

# System: SF-539 CNS
# Test summary: NCI-60 one-dose screen, 48 h (100 = growth as untreated, 0 = no growth, -100 = all killed)
# Measurement setup: 10 µM unless noted
The panel holds about 83,000 compounds, 20% with a hit somewhere; the sample as a whole holds those more often.
Kindly supply the reported growth values for the records listed here.
The reply should contain only the number, in %.

Quick one: growth of `Cc1ccc(Cl)cc1NC(=O)N/C(N)=N/c1nc2ccccc2s1` ? -51.2

Quick one: growth of `Cn1cc(Nc2ncnc(-c3ccc(N4CCCC4)c(C#N)c3)n2)cn1` ? 65.2

Quick one: growth of `Nc1ccc(-c2ccc3ncnc(N4CCc5cc(F)c(Cl)cc54)c3c2)cn1` ? 24.9
